Reported Top (MFI) values for a set of binders
- target or system: T1, human AMHRII (anti-Mullerian hormone receptor type 2) (human, UniProt Q16671 18-573)
- T1 construct: whole, on cells; also called AMHR2; human AMHR2
- T1 sequence (looked up): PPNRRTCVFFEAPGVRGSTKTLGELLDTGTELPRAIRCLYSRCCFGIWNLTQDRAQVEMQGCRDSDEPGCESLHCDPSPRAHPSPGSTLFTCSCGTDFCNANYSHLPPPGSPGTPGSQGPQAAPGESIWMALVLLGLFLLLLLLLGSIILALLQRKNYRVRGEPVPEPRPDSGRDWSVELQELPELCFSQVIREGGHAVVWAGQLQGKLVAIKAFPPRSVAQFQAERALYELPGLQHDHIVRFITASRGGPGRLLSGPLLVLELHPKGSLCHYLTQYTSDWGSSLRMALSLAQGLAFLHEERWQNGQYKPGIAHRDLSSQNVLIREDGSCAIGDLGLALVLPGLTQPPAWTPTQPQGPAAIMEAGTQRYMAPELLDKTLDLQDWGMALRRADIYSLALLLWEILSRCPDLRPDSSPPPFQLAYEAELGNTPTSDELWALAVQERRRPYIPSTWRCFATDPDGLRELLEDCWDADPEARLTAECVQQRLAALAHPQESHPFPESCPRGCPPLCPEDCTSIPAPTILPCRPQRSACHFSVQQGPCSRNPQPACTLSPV
- measurement description: FACS on CHO-K1 cells over-expressing human AMHR2
Hi! Could you send only the number? It should be in MFI, unit omitted.

>  <binder>
xi94C4C3 hIgG1 (antibody, V domains shown, Murine variable domains in human chimeric format, human IgG1; also called xi94C4C3 hlgG1; 94C4C3 (chimeric)) VH: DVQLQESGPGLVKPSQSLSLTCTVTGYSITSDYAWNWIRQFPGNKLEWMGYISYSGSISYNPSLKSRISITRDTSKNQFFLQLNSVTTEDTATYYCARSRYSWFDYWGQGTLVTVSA VL: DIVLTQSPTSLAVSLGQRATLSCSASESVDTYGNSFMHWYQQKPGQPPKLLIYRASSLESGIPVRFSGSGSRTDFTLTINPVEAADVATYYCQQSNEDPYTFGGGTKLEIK

>  <Top (MFI)>
124000

$$$$
>  <binder>
xi114A2B5 hIgG1 (antibody, V domains shown, Murine variable domains in human chimeric format, human IgG1; also called 114A2B5 (chimeric)) VH: DVQLQESGPGLVKPSQSLSLTCTVTGYSITSDYAWNWIRQFPGNKLEWMGYISYSGSTSYNPSLKSRISITRDTSKNQFFLQLNSVTTEDTATYYCARSRYSWFDYWGQGTLVTVSA VL: DIVLTQSPASLAVSLGQRATLSCRASESVDTYGNSFMHWYQQKPGQSPKLLIYRASSLESGIPARFSGSGSRTDFTLTINPVEAADVATYYCQQSNEDPYTFGGGTKLEIK

>  <Top (MFI)>
127000

$$$$

Lookup result for xi103C5G10F9 hIgG1 (antibody, V domains shown, Murine variable domains in human chimeric format, human IgG1; also called 103C5G10F9 (chimeric)) VH: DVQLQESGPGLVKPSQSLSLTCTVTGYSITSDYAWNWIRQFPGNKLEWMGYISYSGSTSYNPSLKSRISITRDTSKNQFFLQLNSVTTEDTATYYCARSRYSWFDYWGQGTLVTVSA VL: DIVLTQSPTSLAVSLGQRATLSCSASESVDTYGNSFMHWYQQKPGQSPKLLIYRASSLESGIPARFSGSGSRTDFTLTINPVEAADVATYYCQQSNEDPYTFGGGTKLEIK ; measured Top (MFI): 124000

Lookup result for xi31D9B3 hIgG1 (antibody, V domains shown, Murine variable domains in human chimeric format, human IgG1; also called xi31D9B3 hlgG1; 31D9B3 hlgG1) VH: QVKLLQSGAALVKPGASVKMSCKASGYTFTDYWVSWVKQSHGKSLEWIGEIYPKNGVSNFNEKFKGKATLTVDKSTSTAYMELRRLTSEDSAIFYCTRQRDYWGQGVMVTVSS VL: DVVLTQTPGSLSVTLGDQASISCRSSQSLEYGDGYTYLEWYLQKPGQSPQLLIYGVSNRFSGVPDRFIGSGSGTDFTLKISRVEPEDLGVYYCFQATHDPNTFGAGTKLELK ; measured Top (MFI): 122000
